Target: WT BTK protein (Homo sapiens, UniProt Q06187)
Construct: measured for intracellular BTK protein levels by Western blotting; endogenous in cells; host or cells: TMD-8 or RAMOS cells
Sequence (Q06187 whole entry): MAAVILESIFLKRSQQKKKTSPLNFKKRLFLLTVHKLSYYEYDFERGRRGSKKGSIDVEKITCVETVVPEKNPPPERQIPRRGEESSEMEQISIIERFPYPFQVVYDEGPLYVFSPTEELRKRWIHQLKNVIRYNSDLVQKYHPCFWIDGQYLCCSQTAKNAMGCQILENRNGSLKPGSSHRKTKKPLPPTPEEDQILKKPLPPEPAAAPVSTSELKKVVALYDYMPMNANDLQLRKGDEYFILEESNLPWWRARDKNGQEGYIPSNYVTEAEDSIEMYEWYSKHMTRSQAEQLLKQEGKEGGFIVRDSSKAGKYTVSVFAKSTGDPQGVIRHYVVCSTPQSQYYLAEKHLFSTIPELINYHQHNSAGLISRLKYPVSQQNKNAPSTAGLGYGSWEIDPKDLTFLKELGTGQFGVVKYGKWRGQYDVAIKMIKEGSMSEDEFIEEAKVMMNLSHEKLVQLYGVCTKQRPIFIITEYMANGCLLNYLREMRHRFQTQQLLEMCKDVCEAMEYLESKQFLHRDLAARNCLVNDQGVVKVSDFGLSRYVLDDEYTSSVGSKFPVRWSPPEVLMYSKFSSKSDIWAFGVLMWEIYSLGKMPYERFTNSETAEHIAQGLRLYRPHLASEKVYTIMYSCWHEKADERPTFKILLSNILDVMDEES
Assay: BTK protein degradation assay (Western blotting), WT BTK
Format: cell-based
Conditions: concentration range accounting for 50% degradation of WT BTK protein, TMD-8 or RAMOS cells, 24 hours
testReadout: DC50

{"compound": "Cc1cccc(C)c1Nc1nn(C)c2nc(Nc3ccc4c(c3)CN(C(=O)C3CCN(c5cccc6nnn(C7CCC(=O)NC7=O)c(=O)c56)CC3)CC4)ncc12 (stereo not drawn) [Compound 59]", "DC50": "0.1 to 10 nM"}

(Q) Answer with DC50 of Cc1cccc(C)c1Nc1nn(C)c2nc(Nc3ccc4c(c3)CN(C(=O)CN3CCN(c5ccc6c(c5)C(=O)N(C5CCC(=O)NC5=O)C6=O)CC3)CC4)ncc12 (stereo not drawn) [Compound 93] measured for WT BTK protein (Homo sapiens, UniProt Q06187).
(A) 10 to 1000 nM

* * *

Target: WT BTK protein (Homo sapiens, UniProt Q06187)
Construct: measured for intracellular BTK protein levels by Western blotting; endogenous in cells; host or cells: TMD-8 or RAMOS cells
Assay: BTK protein degradation assay (Western blotting), WT BTK
Type: cell-based
Details: concentration range accounting for 50% degradation of WT BTK protein, TMD-8 or RAMOS cells, 24 hours
testReadout: DC50

Take a look at these entries with their results.
{"compound": "Cc1cccc(C)c1Nc1nn(C)c2nc(Nc3ccc(C4CN(CC5CN(c6ccc7c(c6)C(=O)N(C6CCC(=O)NC6=O)C7=O)C5)C4)cc3)ncc12 (stereo not shown) [Compound 182]", "testReadout": "DC50", "recordedMeasurement": "0.1 to 10 nM"}
{"compound": "Cc1cccc(C)c1Nc1nn(C)c2nc(Nc3ccc(N4CCN(CC5CCN(c6cc7c(cc6F)C(=O)N(C6CCC(=O)NC6=O)C7)CC5)CC4)cc3)ncc12 (stereo not shown) [Compound 245]", "testReadout": "DC50", "recordedMeasurement": "0.1 to 10 nM"}
{"compound": "Cc1cccc(C)c1Nc1nn(C)c2nc(Nc3ccc4c(c3)CN(CC3CCN(CC5CN(c6ccc7c(c6)C(=O)N(C6CCC(=O)NC6=O)C7=O)C5)CC3)CC4)ncc12 (stereo not shown) [Compound 50]", "testReadout": "DC50", "recordedMeasurement": "10 to 1000 nM"}

Now, please, on to the next compound.
(Q) Indicate its recorded DC50; the compound in question is Cc1cccc(C)c1Nc1nn(C)c2nc(Nc3ccc4c(c3)CN(C(=O)[C@@H]3CCCN3C(=O)CN3CCN(c5ccc6c(c5)C(=O)N(C5CCC(=O)NC5=O)C6=O)CC3)CC4)ncc12 (stereo partly shown) [Compound 33]
(A) 10 to 1000 nM

* * *

Target: WT BTK protein (Homo sapiens)
Construct: measured for intracellular BTK protein levels by Western blotting; endogenous in cells; host or cells: TMD-8 or RAMOS cells
Assay: BTK protein degradation assay (Western blotting), WT BTK
Format: cell-based
Conditions: concentration range accounting for 50% degradation of WT BTK protein, TMD-8 or RAMOS cells, 24 hours
testReadout: DC50

A selection of reference data follows.
{"compound": "Cc1cccc(C)c1Nc1nn(C)c2nc(Nc3ccc4c(c3)CCN(CC3CCN(c5ccc6c(c5)C(=O)N(C5CCC(=O)NC5=O)C6=O)CC3)C4)ncc12 (centres unmarked) [Compound 172]", "testReadout": "DC50", "recordedMeasurement": "0.1 to 10 nM"}
{"compound": "Cc1cccc(C)c1Nc1nn(C)c2nc(Nc3ccc(N4CCN(c5ccc6c(c5)C(=O)N(C5CCC(=O)NC5=O)C6=O)CC4)cc3)ncc12 (centres unmarked) [Compound 238]", "testReadout": "DC50", "recordedMeasurement": "0.1 to 10 nM"}
{"compound": "Cc1cccc(C)c1Nc1nn(C)c2nc(Nc3ccc4c(c3)CN(CC3CCN(C(=O)CCc5cccc6c5CN(C5CCC(=O)NC5=O)C6=O)CC3)CC4)ncc12 (centres unmarked) [Compound 64]", "testReadout": "DC50", "recordedMeasurement": "0.1 to 10 nM"}
{"compound": "Cc1cccc(C)c1Nc1nn(C)c2nc(Nc3ccc(N4CCC(CN5CCN(c6ccc7c(c6)C(=O)N(C6CCC(=O)NC6=O)C7=O)CC5)CC4)nc3)ncc12 (centres unmarked) [Compound 135]", "testReadout": "DC50", "recordedMeasurement": "0.1 to 10 nM"}

(Q) Specify DC50 for Cc1cccc(C)c1Nc1nn(C)c2nc(Nc3ccc(CCNC(=O)C4CCN(c5ccc6c(c5)C(=O)N(C5CCC(=O)NC5=O)C6=O)CC4)cc3)ncc12 (centres unmarked) [Compound 100] and stop.
(A) 0.1 to 10 nM

(Q) Return the recorded DC50 value; entry: Cc1cccc(C)c1Nc1nn(C)c2nc(Nc3ccc4c(c3)CN(CC3CCN(C(=O)COc5ccc6nnn(C7CCC(=O)NC7=O)c(=O)c6c5)CC3)CC4)ncc12 (centres unmarked) [Compound 48]
(A) 0.1 to 10 nM

(Q) For the compound Cc1cccc(C)c1Nc1nn(C)c2nc(Nc3ccc4c(c3)CN(C(=O)C3CCN(c5ccc6c(c5)C(=O)N(C5CCC(=O)NC5=O)C6=O)C3)CC4)ncc12 (centres unmarked) [Compound 66] , report DC50.
(A) 10 to 1000 nM

(Q) Return the recorded DC50 value; entry: Cc1cccc(C)c1Nc1nn(C)c2nc(Nc3ccc4c(c3)CN(C(=O)/C(C#N)=C/C3CCN(C(=O)c5ccc6c(c5)CN(C5CCC(=O)NC5=O)C6=O)CC3)CC4)ncc12 (centres unmarked) [Compound 259]
(A) 10 to 1000 nM

(Q) Return reported DC50. Input compound: Cc1cccc(C)c1Nc1nn(C)c2nc(Nc3ccc(N4CCN(CC5CN(c6ccc7c(c6)C(=O)N(C6CCC(=O)NC6=O)C7=O)C5)C[C@H]4C)cc3)ncc12 (some centres unmarked) [Compound 184]
(A) 0.1 to 10 nM

(Q) State its DC50: Cc1cccc(C)c1Nc1nn(C)c2nc(Nc3ccc4c(c3)CN(C(=O)C3CCN(C(=O)CN5CCN(c6ccc7c(c6)C(=O)N(C6CCC(=O)NC6=O)C7=O)CC5)CC3)CC4)ncc12 (centres unmarked) [Compound 44]
(A) 0.1 to 10 nM

(Q) Tell me measured DC50 for Cc1cccc(C)c1Nc1nn(C)c2nc(Nc3ccc4c(c3)CN(C(=O)COCCOCCOCCOCCNC(=O)CNc3cccc5c3C(=O)N(C3CCC(=O)NC3=O)C5=O)CC4)ncc12 (centres unmarked) [Compound 10] please.
(A) 10 to 1000 nM
